- experimental.details: Phase 1b MAD plasma pharmacokinetics, non-compartmental analysis
- Assay type: in vivo, human
- recorded.conditions: human, plasma, po, 360 mg SDD, Table 35 (interim): Cohort D (AD), 360 mg SDD (90 mg NTRX-07) QD oral, Day 7; mean ± S.D.
readout.kind: AUC over 24 h (AUC0-24) (ng·h/mL)
# value in ng·h/mL; strip the unit string

get_value(item= CC1(Cc2ccccc2)COc2cc(C(=O)N3CCCCC3)ccc21 (stereo not shown) , readout=AUC over 24 h (AUC0-24)) returns 1430

====

- experimental.details: Phase 1b MAD plasma pharmacokinetics, non-compartmental analysis
- Type: in vivo, human
- recorded.conditions: human, plasma, po, 90 mg, Cohort C healthy, 90 mg QD oral, Day 1; mean ± SD; read-out: Average of Vd/F
readout.kind: Vd/F

What the record says about CC1(Cc2ccccc2)COc2cc(C(=O)N3CCCCC3)ccc21 (stereo not shown) [NTRX-07] : Vd/F is 337 L

The measured values listed here are drawn from patent US20250082624A1.
